Test: Cytotoxicity against mouse RAW264.7 cells after 24 hrs by MTT assay
Type: cell-based
measurement type: CC50 at 24 h

[[record]]
compound_string = "N=C(N)c1ccc(OCCCCCOc2ccc(C(=N)N)cc2)cc1"
measurement_type = "CC50 at 24 h"
measured_value = "25.5 µM"


====

System: Leishmania braziliensis
Experiment: Antipromastigote activity against Leishmania braziliensis MCAN/BR/98/R619 after 24 hrs by MTT assay
Format: functional, organism-based
Conditions: MCAN/BR/98/R619, 24 h
measurement type: IC50 (µM)

[[record]]
molecule = "N=C(N)c1ccc(OCCCCCOc2ccc(C(=N)N)cc2)cc1 [PENTAMIDINE]"
measurement_type = "IC50"
readout_units = "µM"
measured_value = 13

